tested on: Plasmodium falciparum; test: Screen against P. falciparum Asexual Blood Stage (ABS), at 5uM; type: functional, Dd2; conditions: tested at 5 uM
The campaign covered roughly 65,000 compounds. About 2,100 (3.2%) showed an effect of 50% or more. The median lay at about -52%. The list comes from a sample in which strong results are over-represented; it also holds close analogues and randomly drawn compounds.
Assign satisfied to entries whose INHIBITION meets or exceeds -20%; assign not satisfied to the rest.

- O=C(Cc1ccc(O)c(F)c1)N1CCN(CC2CC2)[C@@H]2CS(=O)(=O)C[C@@H]21: not satisfied
- Cc1nc(CO[C@H]2CN(Cc3ccccn3)[C@@H]3CCCO[C@H]23)cs1: not satisfied
- Cc1cccc(N2CCC(NC(C)c3cccs3)CC2)n1 (stereo unspecified): not satisfied
- Cc1cc(N2CCC(NCCOc3ccccc3)CC2)nc(C)n1: satisfied
- Cc1cc(N2CCCC2c2cccnc2)nc(C)n1 (stereo unspecified): satisfied
- CCCc1cc(N2CCC(NCCc3ccc(O)cc3)CC2)nc(C)n1: satisfied
- CCc1ccc2nc(NCCCN(CCO)CCO)cc(C)c2c1: satisfied
- CSc1cccc(CN(C)C(=O)c2cccc(C3CCCNC3)c2)c1 (stereo unspecified): satisfied
- Cc1noc(C)c1CN1C[C@@H](OCC(=O)N(C)C)[C@H]2OCCC[C@H]21: not satisfied
- Cc1ccc(N2CCO[C@H]3CN(Cc4nccs4)C[C@H]32)nn1: not satisfied
- O=C(c1ccc2c(c1)COC2)N1CCC(Nc2ccccc2)CC1: not satisfied

###

Listed here are molecules together with their documented INHIBITION.
tested on: Plasmodium falciparum; test: Screen against P. falciparum Asexual Blood Stage (ABS), at 5uM; type: functional, Dd2; details: tested at 5 uM
Out of some 65,000 compounds screened, about 2,100 (3.2%) showed an effect of 50% or more. The median lay at about -52%. The sample as a whole holds a higher share of strong results than the screen did.
Assay readout: INHIBITION

* CNC(=O)[C@H]1C[C@@H]2CN(C(=O)c3ccncc3F)C[C@@H]2N1C | -96.9%
* Fc1cnc(N2CCOC3(CCN(Cc4ccsc4)CC3)C2)nc1 | 81.6%
* Fc1cnc(N2CCCC3(CN(Cc4cccs4)CCO3)C2)nc1 (stereo unspecified) | -78.4%
* Cc1cnc(N2CC3(CCN(Cc4cccnc4)C3)C2)nc1 | 12.1%
* Cc1ccccc1C1(C(=O)NCCN2CCC(C)CC2)CCOCC1 | 85.3%
* OCCN1CCC(CNCc2ccc(N3CCCCC3)cc2)CC1 | 91.9%
* O=C(NCCc1ccccn1)[C@@]12CCO[C@@H]1CCN(CC1CC1)C2 | 30.8%
* Fc1cnc(N2CCOCC3(CCCNC3)C2)nc1 (stereo unspecified) | -11.2%
* Cc1cnc(N2CCOC3(CCCN(C)C3)C2)nc1 (stereo unspecified) | 14.9%
* c1cnc(N2CCCC3(CCN(Cc4ccncc4)C3)C2)nc1 (stereo unspecified) | -63.1%
* Cc1ccccc1C1(C(=O)NCCN2CCCC(C)C2)CCOCC1 (stereo unspecified) | 88.1%

###

tested on: Plasmodium falciparum; test: Screen against P. falciparum Asexual Blood Stage (ABS), at 5uM; type: functional, Dd2; conditions: tested at 5 uM
The campaign covered roughly 65,000 compounds. About 2,100 (3.2%) showed an effect of 50% or more. The median lay at about -52%. The sample as a whole holds a higher share of strong results than the screen did.
Assign yes (1) to entries whose INHIBITION meets or exceeds 70%; assign no (0) to the rest.

* Cc1cc(N(C)C)nc(C2CCCNC2)n1 (stereo unspecified) | no (0)
* CN(Cc1cc2cc(F)ccc2[nH]1)c1cc(C2CCCNC2)ncn1 (stereo unspecified) | yes (1)
* Cc1nc(C2CCNCC2)cc(N(C)Cc2cc3cc(F)ccc3[nH]2)n1 | yes (1)
* CN1CCCC(c2cccc(-c3cccc(C(F)(F)F)c3)n2)C1 (stereo unspecified) | yes (1)
* Cc1nc(NCCC23CCCN2CCC3)cc(C2CCNCC2)n1 | no (0)
* COc1ccc2[nH]c(CNc3cc(C4CCNCC4)nc(C)n3)cc2c1 | yes (1)
* c1ccc(CN2C[C@@H]3OCCN(c4ncccn4)[C@@H]3C2)nc1 | no (0)
* CN1CCN(C[C@H]2CN3CC[C@H]2C[C@@H]3CNC(=O)c2ccco2)CC1 | no (0)
* CC(C)NC(=O)N1CCOC2(CNC2)C1 | no (0)
* CN1CCN2C(=O)N(C3CCOCC3)C[C@H]2C1 | no (0)
* Cc1nc(NCC23CCCN2CCC3)cc(C2CCCNC2)n1 (stereo unspecified) | no (0)

###

system: Plasmodium falciparum; experiment: Screen against P. falciparum Asexual Blood Stage (ABS), at 5uM; assay type: functional, Dd2; details: tested at 5 uM
Hit rate of the full screen: of about 65,000 compounds, about 2,100 (3.2%) showed an effect of 50% or more. The median lay at about -52%. Shown is part of a subset that was picked to be rich in strong results.
Assay readout: INHIBITION (%)

• O=S1(=O)N(c2ccccc2)C[C@H](O)[C@]12CCNC2 = -88.5
• CC1CCCCN1C(=O)c1coc(COc2cccc3cnccc23)n1 (configuration not stated) = 86.5
• Cc1noc(C)c1CN1CC[C@H]2C[C@H](c3nccs3)O[C@@H]2C1 = -8.14
• Cc1ccc(N2CCC3(CCCN3Cc3ccn(C)n3)CC2)nn1 = -63.5
• O=C1N(Cc2ccccn2)C[C@H]2CN(C3CCC3)CCN12 = -13.7
• c1cc(COC[C@@H]2CCC[C@@]23CNCCO3)ccn1 = 7.1
• O=S1(=O)N(c2ccccc2)C[C@@H](O)[C@]12CCNC2 = -3.43
• O=C1N(Cc2ccc(Cl)cc2)CCC12CCCNC2 (configuration not stated) = 85.4
• O=C(c1c[nH]c2ncccc12)N(Cc1ccco1)C1CCCC1 = 87
• COc1cccc2c(=O)n(C3CCNCC3)cnc12 = -104
• CC(C)Oc1ccc(C(O)CNCc2ccccc2C(F)(F)F)cc1 (configuration not stated) = 83.2
• CC(C)C(NC(=O)c1ccccc1F)C(=O)N1CCC2(CC1)OCCO2 (configuration not stated) = -65.9
• Cc1nc2c(c(NCc3nc4ccccc4s3)n1)CCNCC2 = 71.3
• Cc1ccc(CN2C[C@@H](OCc3ccccn3)[C@H]3COC[C@H]32)o1 = -72.9
• NC1(c2nc(-c3cccs3)cc(=O)[nH]2)CCCCC1 = -95.6
• Cc1cccc(CN2CCC(NCC3CNc4cc(C)nn4C3)CC2)c1 (configuration not stated) = 86.5
• Cc1ccccc1CC(C)NCc1c(C)nn(C)c1N1CCOCC1 (configuration not stated) = 65.8
• CN(C)c1nc2c(c(NCc3cc(O)ncn3)n1)CCCC2 = 89.4
• CCS(=O)(=O)NC[C@]12COC[C@H]1CN(Cc1cccnc1)C2 = -97.3
• COc1ccc(-c2ccoc2)cc1CNC1CCCC1 = 70.2
• Cc1ccc(OCC(=O)N2CCN[C@H]3CS(=O)(=O)C[C@H]32)cn1 = -103
• COc1ncccc1CN1CCC2(CC1)COCCN2C = -36
• O=C1CO[C@@H]2CN(Cc3ccsc3)C[C@H]2N1Cc1ccncc1 = -56.6
• NC(=O)C1(Cc2ccc(-c3ccccc3)cc2)CCNC1 (configuration not stated) = 92.7
• CN1CCN(Cc2ccccc2Oc2nccc3occc23)CC1 = 77.4
• N#Cc1ccc(NCCc2n[nH]c(=O)[nH]2)cc1Cl = -36.1
• COc1ccc(C(=O)N2CCOC3(CNCCOC3)C2)c(OC)n1 (configuration not stated) = -97.3
• Cc1cc(-c2cnc(N3CCCC3)nc2C(C)C)on1 = 10.2
• N#Cc1cccc(OC23CCCN(CC2)C3)c1 (configuration not stated) = -31.3
• Cc1cccc(NC(=O)c2cccc(OCc3nnnn3C)c2)n1 = 80.7
• CC[C@@H]1N(CC2CC2)CCC[C@]12CCC(=O)N2 = -57.5
• Cc1nn(C)c(N(C)C)c1CNC(C)Cc1c(F)cccc1F (configuration not stated) = -5.23
• CNC(=O)[C@H]1C[C@H]2OCC[C@H]2N(CC2CC2)C1 = -40
• O=C(Cc1cccs1)N1C[C@@H]2OCCN(CC3CCCC3)[C@@H]2C1 = -96.4
• c1ccc(OC[C@H]2CCC[C@]23CN(Cc2nccs2)CCO3)nc1 = 6.16
• c1ccc(Oc2cccc(OC34CCCN(CC3)C4)c2)cc1 (configuration not stated) = 76.9
• O=C1N(Cc2cccc(F)c2)CCC12CCCNC2 (configuration not stated) = -20.3
• COCCCN1CCCC12CCN(Cc1cccnc1OC)CC2 = 8.49
• Cc1cc(CN2C[C@@H]3COC[C@@H](C(=O)N4CCCCO4)[C@@H]3C2)no1 = -31.1
• CCc1cccnc1NCc1cnc(N2CCOCC2)nc1 = -53.7
• COCCNC(=O)c1cn(C(C)(C)C)c2ncccc12 = -129
• CCC(CO)N(Cc1cccc(O)c1)Cc1ccccc1C (configuration not stated) = 75.2
• CN(C)c1nccc(N(C)C2CCN(CC3CCOC3)CC2)n1 (configuration not stated) = -4.08
• O=C(c1cc2ccccc2[nH]c1=O)N1CCC2(CCCNC2)C1 (configuration not stated) = -49.9
• CC(C)(C)C(=O)NCCNCc1ccc(Cl)c2cccnc12 = 77.7
• O=C(c1nc(=O)[nH]c2ccccc12)N1CCCC2(CCNC2)C1 (configuration not stated) = -74.6
• CS(=O)(=O)N1CCOCC2(CN(Cc3ccccn3)CCO2)C1 (configuration not stated) = -46.3
